system: Tetranychus urticae (Two-spotted spider mite); assay: Tetranychus urticae (Two-spotted spider mite) mortality, sprayed bean leaf discs; type: in vivo; details: foliar, 192 h, 200 ppm spray on bean leaf discs, mixed ages, egg, larval and adult mortality after 8 days
experimentalReadout: pest or weed control at 200 ppm

Give reported pest or weed control at 200 ppm value for CCN(C(=O)c1ccc(F)cc1Cl)c1cccc(C(=O)Nc2c(Br)cc(C(F)(C(F)(F)F)C(F)(F)F)cc2OC(F)F)c1OC
≥ 80%

Give reported pest or weed control at 200 ppm value for CCN(C(=O)c1ccc([N+](=O)[O-])cc1)c1cccc(C(=O)Nc2c(Br)cc(C(F)(C(F)(F)F)C(F)(F)F)cc2OC(F)F)c1F
≥ 80%

Give reported pest or weed control at 200 ppm value for COc1c(NC(=O)c2ccc(F)cc2)cccc1C(=O)Nc1c(Cl)cc(C(F)(C(F)(F)F)C(F)(F)F)cc1OC(F)F
≥ 80%

Give reported pest or weed control at 200 ppm value for COc1c(NC(=O)c2ccccc2Cl)cccc1C(=O)Nc1c(Cl)cc(C(F)(C(F)(F)F)C(F)(F)F)cc1OC(F)F
≥ 80%

Give reported pest or weed control at 200 ppm value for CCN(C(=O)c1cc[n+]([O-])cc1)c1cccc(C(=O)Nc2c(Br)cc(C(F)(C(F)(F)F)C(F)(F)F)cc2OC(F)F)c1OC
≥ 80%

Give reported pest or weed control at 200 ppm value for CCN(C(=O)c1ccc([N+](=O)[O-])cc1)c1cccc(C(=O)Nc2c(Br)cc(C(F)(C(F)(F)F)C(F)(F)F)cc2OC(F)F)c1OC
≥ 80%

----------
test system: Tetranychus urticae (Two-spotted spider mite); experiment: Tetranychus urticae (Two-spotted spider mite) mortality, sprayed bean leaf discs; assay type: in vivo; settings: foliar, 192 h, 200 ppm spray on bean leaf discs, mixed ages, egg, larval and adult mortality after 8 days
experimentalReadout: pest or weed control at 200 ppm

Give reported pest or weed control at 200 ppm value for COc1c(NC(=O)c2ccc(F)cc2F)cccc1C(=O)Nc1c(Br)cc(C(F)(C(F)(F)F)C(F)(F)F)cc1OC(F)F
≥ 80%

Give reported pest or weed control at 200 ppm value for O=C(Nc1cccc(C(=O)Nc2c(Br)cc(C(F)(C(F)(F)F)C(F)(F)F)cc2OC(F)F)c1F)c1cccc(F)c1F
≥ 80%

Give reported pest or weed control at 200 ppm value for CCN(C(=O)c1ccc(F)cc1C)c1cccc(C(=O)Nc2c(Br)cc(C(F)(C(F)(F)F)C(F)(F)F)cc2OC(F)F)c1OC
≥ 80%

----------
test system: Tetranychus urticae (Two-spotted spider mite); test: Tetranychus urticae (Two-spotted spider mite) mortality, sprayed bean leaf discs; type: in vivo; conditions: foliar, 192 h, 200 ppm spray on bean leaf discs, mixed ages, egg, larval and adult mortality after 8 days
Consider the following compounds; for each one, report its pest or weed control at 200 ppm.

Give reported pest or weed control at 200 ppm value for CCN(C(=O)c1ccc(F)cc1)c1cccc(C(=O)Nc2c(Cl)cc(C(F)(C(F)(F)F)C(F)(F)F)cc2OC(F)F)c1F
≥ 80%

Give reported pest or weed control at 200 ppm value for COc1c(NC(=O)c2ccccc2C(F)(F)F)cccc1C(=O)Nc1c(Cl)cc(C(F)(C(F)(F)F)C(F)(F)F)cc1OC(F)F
≥ 80%

Give reported pest or weed control at 200 ppm value for CCN(C(=O)c1ccc(F)cc1)c1cccc(C(=O)Nc2c(Br)cc(C(F)(C(F)(F)F)C(F)(F)F)cc2OC(F)F)c1F
≥ 80%

Give reported pest or weed control at 200 ppm value for COc1c(NC(=O)c2ccc(C#N)cc2)cccc1C(=O)Nc1c(Cl)cc(C(F)(C(F)(F)F)C(F)(F)F)cc1OC(F)F
≥ 80%

Give reported pest or weed control at 200 ppm value for CCN(C(=O)c1ccc(F)cc1F)c1cccc(C(=O)Nc2c(Br)cc(C(F)(C(F)(F)F)C(F)(F)F)cc2OC(F)F)c1F
≥ 80%

Give reported pest or weed control at 200 ppm value for CCN(C(=O)c1ccc(C#N)cc1)c1cccc(C(=O)Nc2c(Br)cc(C(F)(C(F)(F)F)C(F)(F)F)cc2OC(F)F)c1F
≥ 80%

Give reported pest or weed control at 200 ppm value for O=C(Nc1cccc(C(=O)Nc2c(Br)cc(C(F)(C(F)(F)F)C(F)(F)F)cc2OC(F)F)c1F)c1ccc(C(F)(F)F)cc1
≥ 80%

Give reported pest or weed control at 200 ppm value for N#Cc1ccc(C(=O)Nc2cccc(C(=O)Nc3c(Br)cc(C(F)(C(F)(F)F)C(F)(F)F)cc3OC(F)F)c2F)cc1
≥ 80%

Give reported pest or weed control at 200 ppm value for O=C(Nc1cccc(C(=O)Nc2c(Cl)cc(C(F)(C(F)(F)F)C(F)(F)F)cc2OC(F)F)c1F)c1ccccc1
≥ 80%

Give reported pest or weed control at 200 ppm value for COc1c(NC(=O)c2ccc(F)cc2C)cccc1C(=O)Nc1c(Cl)cc(C(F)(C(F)(F)F)C(F)(F)F)cc1OC(F)F
≥ 80%

Give reported pest or weed control at 200 ppm value for COc1c(NC(=O)c2ccc(C#N)cc2)cccc1C(=O)Nc1c(Br)cc(C(F)(C(F)(F)F)C(F)(F)F)cc1OC(F)F
≥ 80%
